assay-explanation: Clearance in dog at 1 mg/kg, iv by LC-MS/MS analysis
Assay type: ADME, organism-based, Canis lupus familiaris
Parameters: dose 1 mg/kg, route intravenous
condition-parameters: in vivo
property-name: clearance (L/h/kg)

INSERT INTO measurements (compound, output_unit, measured_result) VALUES
  ('Cc1nc2c(C#N)cccc2n1-c1ccc(C(=O)NC2CC2)s1', 'L/h/kg', 0.402);

----------
System: Plasmodium vivax
assay-explanation: Inhibition of Plasmodium vivax DHODH after 20 mins by 2,6-dichloroindophenol-reduction based assay
The source made the active and inactive calls. The rule behind the calls is not given here.
property-name: inhibition

INSERT INTO assay_data (compound, measured_result) VALUES
  ('Cc1nc2c(OCC(F)F)cccc2n1-c1ccc(C(=O)NC2CC2)s1', 'Active'),
  ('Cc1nc2c(Br)cccc2n1-c1ccc(C(=O)NC2CC2)s1', 'Active'),
  ('Cc1ccc2nc(C)n(-c3ccc(C(=O)NC4CC4)s3)c2c1', 'Active'),
  ('Cc1nc2c(Cl)cccc2n1-c1ccc(C(=O)NC2CC2)s1', 'Active'),
  ('Cc1nc2ccc(F)cc2n1-c1ccc(C(=O)NC2CC2)s1', 'Active'),
  ('Cc1nc2cc(C(F)(F)F)ccc2n1-c1ccc(C(=O)NC2CC2)s1', 'Active');
